METHOD NOTES: Solubility (Test F)
Type: physicochemical
EXPERIMENTAL CONTEXT: arithmetic mean if run multiple times
VALUE KIND: solubility (µM)

> print(dat)
                                   compound  value.observed
1  COc1cc(F)c(O[C@H]2CC[C@@H](C(=O)O)CC2)cc1C(=O)N[C@@H]1[C@H]2CC[C@H](C2)[C@@H]1C(=O)Nc1ccnc(C(F)(F)F)c1             850

1: COc1cc(F)c(O[C@H]2CC[C@@H](C(=O)O)CC2)cc1C(=O)N[C@@H]1[C@H]2CC[C@H](C2)[C@@H]1C(=O)Nc1cccc(C(F)F)c1
2: COc1cc(F)c(-c2cccc(CCC(=O)O)c2)cc1C(=O)N[C@H]1[C@@H](C(=O)Nc2cccc(S(=O)(=O)C(F)(F)F)c2)[C@@H]2C=C[C@H]1C2 (racemic)
Task: Quick check, higher solubility between 1 and 2 ? Pick one and reply with its label.
Result: 1

A: COc1cc(C#N)c(O[C@H]2C[C@@](C)(C(=O)O)C2)cc1C(=O)N[C@@H]1[C@H]2CC[C@H](C2)[C@@H]1C(=O)NCC1(C)CCC1
B: COc1cc(F)c(O[C@H]2CC[C@@](C)(C(=O)O)CC2)cc1C(=O)N[C@@H]1CCC[C@@H]1C(=O)N[C@@H](C)C1(C)CC1 (racemic)
Task: Quick check, higher solubility between A and B ? Pick one and reply with its label.
Result: A

====

METHOD NOTES: Solubility (Test F)
Type: physicochemical
EXPERIMENTAL CONTEXT: arithmetic mean if run multiple times
VALUE KIND: solubility (µM)

The examples below pair each entry with its known result.
> print(dat)
                                   molecule  value.kind  value.observed
1  COc1cc(F)c(O[C@H]2CC[C@@](C)(C(=O)O)CC2)cc1C(=O)N[C@@H]1[C@H]2CC[C@H](C2)[C@@H]1C(=O)NCC1(CF)CC1  solubility            1000
2  COc1cc(F)c(-c2cnc(NCC(=O)O)nc2)cc1C(=O)N[C@@H]1[C@H]2CC[C@H](C2)[C@@H]1C(=O)Nc1cccc(S(=O)(=O)C(F)(F)F)c1  solubility             780
3  COc1cc(F)c(O[C@H]2CC[C@@](C)(C(=O)O)CC2)cc1C(=O)Nc1cc(Cl)ccc1C(=O)NCC1(C)CCC1  solubility              37
4  COc1cc(C#N)c(O[C@H]2CC[C@@](C)(C(=O)O)CC2)cc1C(=O)N[C@H]1C(C(=O)NCC(C)(C)C)[C@@H]2CC[C@H]1C2 (stereo partly drawn)  solubility             910

A: COc1cc(C#N)c(O[C@H]2CC[C@@](C)(C(=O)O)CC2)cc1C(=O)N[C@@H]1[C@H]2CC[C@H](C2)[C@@H]1C(=O)NCc1nccc(C(F)F)n1
B: COc1cc(F)c(O[C@H]2CC[C@@](C)(C(=O)O)CC2)cc1C(=O)Nc1c(C)cc(C)cc1C(=O)NCC1(C)CCC1
Task: Quick check, higher solubility between A and B ? Pick one and reply with its label.
Result: A
(A: 810 µM, B: 29 µM)

====

TARGET UNDER TEST: UniProtKB Q9HBX9
Sequence (Q9HBX9 whole entry): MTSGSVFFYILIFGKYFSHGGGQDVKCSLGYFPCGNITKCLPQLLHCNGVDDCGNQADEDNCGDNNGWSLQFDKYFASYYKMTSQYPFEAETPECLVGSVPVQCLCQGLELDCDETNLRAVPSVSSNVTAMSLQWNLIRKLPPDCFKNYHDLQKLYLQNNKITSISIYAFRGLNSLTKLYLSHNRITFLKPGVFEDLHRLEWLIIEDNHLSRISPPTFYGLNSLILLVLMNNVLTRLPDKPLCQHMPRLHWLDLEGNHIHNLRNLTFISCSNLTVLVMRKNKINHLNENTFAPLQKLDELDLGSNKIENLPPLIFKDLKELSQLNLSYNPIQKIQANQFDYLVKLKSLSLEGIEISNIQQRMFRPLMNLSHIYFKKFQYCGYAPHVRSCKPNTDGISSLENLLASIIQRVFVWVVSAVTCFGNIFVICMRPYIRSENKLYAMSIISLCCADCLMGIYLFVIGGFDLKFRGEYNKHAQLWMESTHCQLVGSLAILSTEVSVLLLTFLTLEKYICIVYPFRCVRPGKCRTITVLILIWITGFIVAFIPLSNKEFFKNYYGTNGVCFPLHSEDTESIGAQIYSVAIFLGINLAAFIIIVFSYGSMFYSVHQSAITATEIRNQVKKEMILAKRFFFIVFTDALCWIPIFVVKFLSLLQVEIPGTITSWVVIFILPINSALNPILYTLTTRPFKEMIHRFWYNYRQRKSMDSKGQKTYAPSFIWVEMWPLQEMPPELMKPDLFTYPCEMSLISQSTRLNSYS
METHOD NOTES: RXFP1 Hu cAMP (Test A)
Type: cell-based
Design: expressed in transfected cells; host or cells: Jump-In T-REx CHO-K1 cells (ThermoFisher), induced with 10 ng/ml doxycycline for 24 h
EXPERIMENTAL CONTEXT: RXFP1 Hu cAMP; read-out: Test A EC50
pEC50: −log10 of the molar value.
VALUE KIND: pEC50

P: COc1cc(C#N)c(O[C@H]2CC[C@@](C)(C(=O)O)CC2)cc1C(=O)N[C@@H]1[C@H]2CC[C@H](C2)[C@@H]1C(=O)NC[C@@H](C)c1ccccc1
Q: COc1cc(F)c(-c2ccc(F)c(C(=O)O)c2)cc1C(=O)N[C@H]1[C@@H](C(=O)Nc2cccc(S(=O)(=O)C(F)(F)F)c2)[C@@H]2C=C[C@H]1C2 (racemic)
Task: Quick check, higher pEC50 between P and Q ? Pick one and reply with its label.
Result: P
